Where these numbers come from: ChEMBL document CHEMBL1130141

- Subject of test: Translocator protein (Rattus norvegicus)
- Assay method text: In vitro binding affinity (pIC50) was tested against peripheral benzodiazepine receptor (PBR) in rat.
pIC50: −log10 of the molar value.
Endpoint: pIC50

CCC(C)NC(=O)c1nc(-c2ccccc2)c2ccccc2c1C (stereo not drawn)
6.26

I. CCC(C)N1Cc2c(nc(-c3ccccc3)c3ccccc23)C1=O (stereo not drawn)
II. Cc1c(C(=O)N(C)Cc2ccccc2)nc2ccccc2c1-c1ccccc1
When I and II are compared, which has the higher number for pIC50? Give the label under which the chosen entry appears. II

----------
- Subject of test: Translocator protein (Rattus norvegicus, UniProt P16257)
- Sequence (P16257 whole entry, looked up): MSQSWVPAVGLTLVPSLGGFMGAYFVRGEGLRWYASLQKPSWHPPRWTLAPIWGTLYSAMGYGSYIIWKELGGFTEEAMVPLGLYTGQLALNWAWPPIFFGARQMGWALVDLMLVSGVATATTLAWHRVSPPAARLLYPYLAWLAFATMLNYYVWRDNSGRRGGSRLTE
- Assay method text: In vitro binding affinity (pIC50) was tested against peripheral benzodiazepine receptor (PBR) in rat.
pIC50: −log10 of the molar value.
Endpoint: pIC50

Check out these entries, answers already filled in.
Cc1c(C(=O)NCc2ccc(Cl)cc2)nc2ccccc2c1-c1ccccc1
5.77
CCC(C)N(C)C(=O)c1nc2ccccc2c(-c2ccccc2F)c1C (configuration not stated)
8.54
Cc1c(C(=O)N(C)Cc2ccc(Cl)cc2)nc2ccccc2c1-c1ccccc1
8.01
CCC(C)N1CC=Cc2c(nc(-c3ccccc3)c3ccccc23)C1=O (configuration not stated)
6.31
CN(Cc1ccccc1)C(=O)c1nc2ccccc2c2c1OCCc1ccccc1-2
8.00
CCC(C)NC(=O)c1nc2ccccc2c(-c2ccccc2F)c1C (configuration not stated)
7.89
Cc1c(C(=O)N(C)Cc2ccc(Cl)cc2)nc2ccccc2c1-c1ccccc1F
8.47
CCC(C)N(C)C(=O)c1nc(-c2ccccc2)c2ccccc2c1C (configuration not stated)
7.95

P. COc1ccc(N(C)C(=O)c2nc3ccccc3c(-c3ccccc3)c2C)cc1
Q. CCC(C)NC(=O)c1nc2ccccc2c(-c2ccccc2)c1C (configuration not stated)
R. O=C1c2nc(-c3ccccc3)c3ccccc3c2CN1Cc1ccccc1
S. Cc1c(C(=O)NCc2ccccc2)nc2ccccc2c1-c1ccccc1
Hello, I need these entries ordered by pIC50, highest reading first. Thanks! In plain terms: list the labels in the order you were asked to. P, Q, R, S
